pKi: −log10 of the molar value.
Reported pKi values, Mu-type opioid receptor (Rattus norvegicus, UniProt P33535).
metric: pKi

INSERT INTO assay_data (structuresmilesstring, targetdesc, metric, valuereported) VALUES
  ('CN(C)[C@@H](Cc1ccc(O)cc1)C(=O)N1Cc2ccccc2C[C@H]1C(=O)O', 'Mu-type opioid receptor (Rattus norvegicus, UniProt P33535)', 'pKi', 5.91),
  ('CN(C)[C@@H](Cc1ccc(O)cc1)C(=O)N1Cc2ccccc2C[C@H]1C(N)=O', 'Mu-type opioid receptor (Rattus norvegicus, UniProt P33535)', 'pKi', 5.84),
  ('CN(C)[C@@H](Cc1c(F)cc(O)cc1F)C(=O)N1Cc2ccccc2C[C@H]1C(N)=O', 'Mu-type opioid receptor (Rattus norvegicus, UniProt P33535)', 'pKi', 6.22),
  ('CN(C)[C@@H](Cc1c(F)cc(O)cc1F)C(=O)N1Cc2ccccc2C[C@H]1C(=O)O', 'Mu-type opioid receptor (Rattus norvegicus, UniProt P33535)', 'pKi', 6.24),
  ('N[C@@H](Cc1ccc(O)cc1)C(=O)N1Cc2ccccc2C[C@H]1C(=O)NCc1nc2ccccc2[nH]1', 'Mu-type opioid receptor (Rattus norvegicus, UniProt P33535)', 'pKi', 7.17),
  ('Cc1cc(O)cc(C)c1C[C@@H](C(=O)N1Cc2ccccc2C[C@H]1C(N)=O)N(C)C', 'Mu-type opioid receptor (Rattus norvegicus, UniProt P33535)', 'pKi', 6.29),
  ('N[C@@H](Cc1ccc(O)cc1)C(=O)N1Cc2ccccc2C[C@H]1C(=O)N[C@@H](CC(=O)O)c1nc2ccccc2[nH]1', 'Mu-type opioid receptor (Rattus norvegicus, UniProt P33535)', 'pKi', 6.17),
  ('N[C@@H](Cc1c(F)cc(O)cc1F)C(=O)N1Cc2ccccc2C[C@H]1C(=O)N[C@@H](CC(=O)O)c1nc2ccccc2[nH]1', 'Mu-type opioid receptor (Rattus norvegicus, UniProt P33535)', 'pKi', 6.65),
  ('N[C@@H](Cc1c(F)cc(O)cc1F)C(=O)N1Cc2ccccc2C[C@H]1C(=O)NCc1nc2ccccc2[nH]1', 'Mu-type opioid receptor (Rattus norvegicus, UniProt P33535)', 'pKi', 7.26);

* * *

Reported Ki values follow for various compounds
targetDesc: Delta-type opioid receptor (Rattus norvegicus)
Sequence (P33533 whole entry): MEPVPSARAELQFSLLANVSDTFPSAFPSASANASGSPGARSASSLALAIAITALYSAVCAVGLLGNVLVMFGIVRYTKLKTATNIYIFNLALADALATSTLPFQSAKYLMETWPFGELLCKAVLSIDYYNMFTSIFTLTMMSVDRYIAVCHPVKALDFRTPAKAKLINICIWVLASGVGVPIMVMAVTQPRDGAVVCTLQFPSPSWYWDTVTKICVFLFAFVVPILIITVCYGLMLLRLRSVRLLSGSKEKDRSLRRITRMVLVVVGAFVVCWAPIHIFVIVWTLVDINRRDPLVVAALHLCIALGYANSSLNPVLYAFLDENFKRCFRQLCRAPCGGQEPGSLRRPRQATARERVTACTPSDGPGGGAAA
testMethodNotes: Displacement of [3H]deltorphin 2 from delta opioid receptor in Sprague-Dawley rat brain P2 synaptosomal membrane
metric: Ki (nM)

INSERT INTO assay_data (structuresmilesstring, metric, quantityunit, valuereported) VALUES
  ('N[C@@H](Cc1ccc(O)cc1)C(=O)N1Cc2ccccc2C[C@H]1C(=O)NCc1nc2ccccc2[nH]1', 'Ki', 'nM', 0.913),
  ('CN(C)[C@@H](Cc1c(F)cc(O)cc1F)C(=O)N1Cc2ccccc2C[C@H]1C(N)=O', 'Ki', 'nM', 176),
  ('N[C@@H](Cc1ccc(O)cc1)C(=O)N1Cc2ccccc2C[C@H]1C(=O)N[C@@H](CC(=O)O)c1nc2ccccc2[nH]1', 'Ki', 'nM', 0.177),
  ('Cc1cc(O)cc(C)c1C[C@@H](C(=O)N1Cc2ccccc2C[C@H]1C(=O)O)N(C)C', 'Ki', 'nM', 0.118),
  ('CN(C)[C@@H](Cc1c(F)cc(O)cc1F)C(=O)N1Cc2ccccc2C[C@H]1C(=O)O', 'Ki', 'nM', 29.2),
  ('CN(C)[C@@H](Cc1ccc(O)cc1)C(=O)N1Cc2ccccc2C[C@H]1C(=O)O', 'Ki', 'nM', 34.8),
  ('Cc1cc(O)cc(C)c1C[C@@H](C(=O)N1Cc2ccccc2C[C@H]1C(N)=O)N(C)C', 'Ki', 'nM', 0.309),
  ('CN(C)[C@@H](Cc1ccc(O)cc1)C(=O)N1Cc2ccccc2C[C@H]1C(N)=O', 'Ki', 'nM', 201),
  ('N[C@@H](Cc1c(F)cc(O)cc1F)C(=O)N1Cc2ccccc2C[C@H]1C(=O)NCc1nc2ccccc2[nH]1', 'Ki', 'nM', 1.01),
  ('N[C@@H](Cc1c(F)cc(O)cc1F)C(=O)N1Cc2ccccc2C[C@H]1C(=O)N[C@@H](CC(=O)O)c1nc2ccccc2[nH]1', 'Ki', 'nM', 0.162);
